Quick list: pEC50 per entry.
# measured-target: SIRT1 (Homo sapiens, UniProt Q96EB6)
# test-protocol: Fluorescence polarization or mass spectrometry based assay to identify modulators of SIRT1 activity (p53-based peptide deacetylation);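 also: recombinant His-tagged human SIRT1 deacetylating p53-derived acetylated peptide, detected by fluorescence polarization after trypsin cleavage, signal inversely tracking deacetylase activity, compared against activity without test compound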
# run-parameters: activation of SIRT1, Table 4; read-out: ED50 (the source's name)
pEC50: −log10 of the molar value.

Observe how each entry below is paired with its result.
smiles=CCCCc1ccc(NC(=O)c2c3c(nc4ccccc24)CCCC3)cc1 reported_value="< 3.82"
smiles=c1ccc2c(c1)Oc1ccccc1C2n1nnc2ccccc21 reported_value="< 3.82"

Given the entry CCCOc1cccc(-c2cc(C(=O)NCCN3CCOCC3)c3ccccc3n2)c1 , report its measured pEC50.
< 3.82

Given the entry CC(C)c1cc(Nc2c3ccccc3nc3ccccc23)n(-c2ccccc2)n1 , report its measured pEC50.
< 3.82

Given the entry CCN(CC)S(=O)(=O)c1ccc(N2CCOCC2)c(NC(=O)c2cc(-c3ccccn3)nc3ccccc23)c1 , report its measured pEC50.
< 3.82

====

# measured-target: SIRT1 (Homo sapiens)
# Sequence (Q96EB6 1-747): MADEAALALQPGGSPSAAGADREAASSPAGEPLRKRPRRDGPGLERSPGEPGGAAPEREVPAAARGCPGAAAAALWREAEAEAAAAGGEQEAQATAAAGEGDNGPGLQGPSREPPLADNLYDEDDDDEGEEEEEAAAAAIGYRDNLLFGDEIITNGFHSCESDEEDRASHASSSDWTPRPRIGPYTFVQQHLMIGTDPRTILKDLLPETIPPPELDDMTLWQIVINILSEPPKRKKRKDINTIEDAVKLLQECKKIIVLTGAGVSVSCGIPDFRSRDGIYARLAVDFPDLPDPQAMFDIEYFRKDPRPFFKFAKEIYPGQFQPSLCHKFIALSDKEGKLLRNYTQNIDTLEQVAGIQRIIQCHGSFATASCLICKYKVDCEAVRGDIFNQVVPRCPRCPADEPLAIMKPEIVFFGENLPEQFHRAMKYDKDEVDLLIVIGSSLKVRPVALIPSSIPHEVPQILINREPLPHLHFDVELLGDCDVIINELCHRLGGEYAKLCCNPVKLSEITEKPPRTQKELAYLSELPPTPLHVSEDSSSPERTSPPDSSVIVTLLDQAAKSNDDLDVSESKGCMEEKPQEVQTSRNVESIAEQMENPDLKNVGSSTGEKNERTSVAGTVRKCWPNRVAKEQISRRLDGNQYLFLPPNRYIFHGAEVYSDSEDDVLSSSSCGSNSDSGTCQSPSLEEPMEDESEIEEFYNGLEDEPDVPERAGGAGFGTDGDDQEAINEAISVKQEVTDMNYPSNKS
# test-protocol: Fluorescence polarization or mass spectrometry based assay to identify modulators of SIRT1 activity (p53-based peptide deacetylation)
# run-parameters: activation of SIRT1, Table 4; read-out: ED50 (the source's name)
observed-property: EC50

Observe how each entry below is paired with its result.
smiles=O=C(Nc1c2c(nc3ccccc13)CCCC2)c1ccncc1 reported_value="> 150 µM"
smiles=Cc1ccc2nc(-c3cccs3)cc(C(=O)N3CCN(C)CC3)c2c1 reported_value="> 150 µM"
smiles=CN(C)c1ccc(C(=O)NNc2cc(-c3ccccc3)nc3ccccc23)cc1 reported_value="> 150 µM"
smiles=Cc1ccc2nc(-c3ccco3)cc(C(=O)NCCCN3CCN(C)CC3)c2c1 reported_value="> 150 µM"
smiles=O=C(NNc1c2ccccc2nc2ccccc12)c1ccncc1 reported_value="< 50 µM"

Given the entry Cc1ccc2nc(-c3ccco3)ccc2c1C(=O)NCCCN1CCCCC1 , report its measured EC50.
> 150 µM

Given the entry Cc1ccc2nc(-c3ccco3)cc(C(=O)NCCN(C)CCN(C)C)c2c1 , report its measured EC50.
> 150 µM

Given the entry Cc1ccc2nc(-c3ccco3)cc(C(=O)N3CCCCC3)c2c1 , report its measured EC50.
> 150 µM

Given the entry Cc1ccc2nc(-c3cccs3)cc(C(=O)NCCN3CCOCC3)c2c1 , report its measured EC50.
< 50 µM

Given the entry O=C(Nc1ccccc1-n1cccc1)c1c2ccccc2nc2ccccc12 , report its measured EC50.
> 150 µM

Given the entry O=C(NNc1c2ccccc2nc2ccccc12)c1cccnc1 , report its measured EC50.
< 50 µM

Given the entry CS(=O)(=O)c1ccc(F)c(NC(=O)c2c3ccccc3nc3ccccc23)c1 , report its measured EC50.
> 150 µM

Given the entry Cc1ccc2nc(-c3ccccc3)cc(C(=O)NCCCN3CCCCC3)c2c1 , report its measured EC50.
> 150 µM

Given the entry O=C(NNC(=O)c1c2ccccc2nc2ccccc12)c1cc(F)cc(F)c1 , report its measured EC50.
> 150 µM
